The reported measurements were obtained from PubChem BioAssay (NCATS).

test system: PA-1; test: Primary qHTS to identify gynecologic anti-cancer compounds using libraries of approved drugs and bioactive compounds (AID 1345084); conditions: Gynecologic cancer cell panel viability, ATPlite luminescence, 48 h; series mostly up to 57.5 µM; also: nearly all actives have a fitted effect of over 55% in size
Inconclusive results are not listed. Active and inactive are the calls of the source. Calls follow the shape of the dose curve; as a rule, active = well fitted cell-killing curve with a large enough effect; inconclusive = small, poorly fitted or top-dose-only effect, or effect the other way; inactive = flat fitted curve, though single readings scatter.
Pick from active, inactive when you respond.

Reference set, count: 10
> print(dat)
                                    molecule  group.label
 1                        CCCCCCCCCCCCCCNCCO     inactive
 2  CC(=O)Oc1ccc(C(c2ccc(OC(C)=O)cc2)c2ccccn2)cc1     inactive
 3  CC(C)=CCC1C(=O)N(c2ccccc2)N(c2ccccc2)C1=O     inactive
 4  NC(=NCCCCCCN=C(N)/N=C(\N)Nc1ccc(Cl)cc1)/N=C(\N)Nc1ccc(Cl)cc1       active
 5                              Oc1ccc(O)cc1     inactive
 6  COC(=O)CCc1ccc(OCC(O)CNC(C)C)cc1 (configuration not stated)     inactive
 7         CC(=O)N/N=C/c1ccc([N+](=O)[O-])o1     inactive
 8  O=c1[nH]c(=O)n([C@H]2C[C@H](O)[C@@H](CO)O2)cc1C(F)(F)F       active
 9  CCN1CCN(c2cc3c(cc2F)c(=O)c(C(=O)O)cn3C2CC2)CC1     inactive
10                        Cc1ccc(O)c2ncccc12     inactive

Query block: State the result this test recorded for CCOC(=O)OC(C)OC1=C(C(=O)Nc2ccccn2)N(C)S(=O)(=O)c2ccccc21 (configuration not stated) .
Result block: inactive

Query block: How was O=c1[nH]c(=O)n([C@H]2CCCO2)cc1F classified in this test?
Result block: inactive

* * *

assay: qHTS to identify inhibitors of the type 1 interferon - major histocompatibility complex class I in skeletal muscle: primary screen against the NCATS Pharmaceutical Collection (AID 1347407); settings: human skeletal muscle cells, IFN-b-induced MHC-I HiBiT luminescence, 24 h; series mostly up to 45.9 µM;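 also: luminescence of HiBiT knocked into endogenous HLA-B as interferon-induced MHC class I level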
Records with an inconclusive call do not appear. Activity calls are given as the source filed them. Calls follow the shape of the dose curve; as a rule, active = well fitted inhibition curve with a large enough effect; inconclusive = small, poorly fitted or top-dose-only effect; inactive = flat fitted curve, though single readings scatter.
Bench note: report the call from active, inactive

Solved cases (5 shown):
> print(dat)
                                   compound  group.label
1  C=C1C[C@H]2[C@@H]3C=C(C)C4=CC(=O)CC[C@]4(C)[C@H]3CC[C@]2(C)[C@@]1(OC(C)=O)C(C)=O     inactive
2  CN=C(NC#N)Nc1ccc(C2=NNC(=O)CC2C)cc1 (configuration not stated)     inactive
3              O=C(N/N=C/c1ccccc1O)c1ccncc1     inactive
4  Cc1ccc(C(=O)C(C)CN2CCCCC2)cc1 (configuration not stated)     inactive
5  CC(=O)CC(c1ccc([N+](=O)[O-])cc1)c1c(O)c2ccccc2oc1=O (configuration not stated)       active

Query block: Called result for CCCCOc1ccc(OCCCN2CCOCC2)cc1
Result block: inactive

Query block: // return assay outcome for COc1c2occc2c(OC)c2c(=O)cc(C)oc12
Result block: inactive

Query block: Check the results log: what was the call for CC(O)(P(=O)(O)O)P(=O)(O)O ?
Result block: inactive

Query block: Field: outcome | Entry: COc1ccc(OC)c(C(O)CNC(=O)CN)c1 (configuration not stated)
Result block: inactive

Query block: GET /call?item= Cc1c(C)n(Cc2ccccc2)c2ccc(C(=O)OCCN(C)C)cc12 returns the recorded outcome of this test.
Result block: inactive

Query block: How was Cc1cccn2c(=O)c(-c3nnn[nH]3)cnc12 classified in this test?
Result block: inactive

Query block: Can you look up the reported call for Cc1ccc(O)c2ncccc12 for me?
Result block: inactive
